- TARGET_OR_SYSTEM: Somatostatin receptor type 2 (Homo sapiens, UniProt P30874)
- Sequence (P30874 whole entry): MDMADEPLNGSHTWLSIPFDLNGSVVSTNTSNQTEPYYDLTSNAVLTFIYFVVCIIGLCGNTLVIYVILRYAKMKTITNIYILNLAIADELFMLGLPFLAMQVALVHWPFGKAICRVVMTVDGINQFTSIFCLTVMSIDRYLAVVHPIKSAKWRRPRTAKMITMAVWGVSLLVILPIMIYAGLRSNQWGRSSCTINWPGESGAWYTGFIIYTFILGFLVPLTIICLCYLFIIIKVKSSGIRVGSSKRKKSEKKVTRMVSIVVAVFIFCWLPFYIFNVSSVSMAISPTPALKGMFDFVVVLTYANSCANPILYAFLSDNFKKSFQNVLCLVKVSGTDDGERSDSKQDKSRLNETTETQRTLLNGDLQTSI
- MEASUREMENT_DESCRIPTION: Antagonist activity at T7 epitope tagged human cloned sst2 receptor expressed in HEK293 cells assessed as inhibition of [Tyr3]octreotide-induced receptor internalization upto 10 uM
- Type: functional, cell-based
Activity calls are given as the source filed them. The calls are words filed in the database; no cut-off is given here.
REPORTED_ENDPOINT: Activity

STRUCTURE_STRING | REPORTED_VALUE
C[C@@H](O)[C@@H]1NC(=O)[C@H](CCCCN)NC(=O)[C@@H](Cc2c[nH]c3ccccc23)NC(=O)[C@H](Cc2ccc(NC(N)=O)cc2)NC(=O)[C@H](NC(=O)[C@H](N)Cc2ccc(Cl)cc2)CSSC[C@@H](C(N)=O)NC1=O | Active
C[C@@H](O)[C@@H]1NC(=O)[C@H](CCCCN)NC(=O)[C@@H](Cc2c[nH]c3ccccc23)NC(=O)[C@H](Cc2ccc(NC(N)=O)cc2)NC(=O)[C@H](NC(=O)[C@@H](Cc2ccc(Cl)cc2)NC(=O)CCOCCOCCOCCNC(=O)CN2CCN(CC(=O)O)CCN(CC(=O)O)CCN(CC(=O)O)CC2)CSSC[C@@H](C(=O)N[C@@H](Cc2ccc3ccccc3c2)C(N)=O)NC1=O | Active

###

- TARGET_OR_SYSTEM: Somatostatin receptor type 2 (Homo sapiens, UniProt P30874)
- MEASUREMENT_DESCRIPTION: Antagonist activity at T7 epitope tagged human cloned sst2 expressed in HEK293 cells assessed as intracellular calcium release upto 10 uM
- Type: functional, cell-based
Calls of active or inactive are those of the source. No cut-off for these calls is given here.
REPORTED_ENDPOINT: Activity

STRUCTURE_STRING | REPORTED_ENDPOINT | REPORTED_VALUE
C[C@@H](O)[C@@H]1NC(=O)[C@H](CCCCN)NC(=O)[C@@H](Cc2c[nH]c3ccccc23)NC(=O)[C@H](Cc2ccc(NC(N)=O)cc2)NC(=O)[C@H](NC(=O)[C@@H](Cc2ccc(Cl)cc2)NC(=O)CCOCCOCCOCCNC(=O)CN2CCN(CC(=O)O)CCN(CC(=O)O)CCN(CC(=O)O)CC2)CSSC[C@@H](C(=O)N[C@@H](Cc2ccc3ccccc3c2)C(N)=O)NC1=O | Activity | inactive
C[C@@H](O)[C@@H]1NC(=O)[C@H](CCCCN)NC(=O)[C@@H](Cc2c[nH]c3ccccc23)NC(=O)[C@H](Cc2ccc(NC(N)=O)cc2)NC(=O)[C@H](NC(=O)[C@H](N)Cc2ccc(Cl)cc2)CSSC[C@@H](C(=O)N[C@@H](Cc2ccc3ccccc3c2)C(N)=O)NC1=O | Activity | inactive
C[C@@H](O)[C@@H]1NC(=O)[C@H](CCCCN)NC(=O)[C@@H](Cc2ccc(NC(N)=O)cc2)NC(=O)[C@H](Cc2ccc(NC(=O)[C@@H]3CC(=O)NC(=O)N3)cc2)NC(=O)[C@H](NC(=O)[C@@H](Cc2ccc(Cl)cc2)NC(=O)CN2CCN(CC(=O)O)CCN(CC(=O)O)CCN(CC(=O)O)CC2)CSSC[C@@H](C(=O)N[C@@H](Cc2ccc3ccccc3c2)C(N)=O)NC1=O | Activity | inactive

###

- TARGET_OR_SYSTEM: Somatostatin receptor type 2 (Homo sapiens, UniProt P30874)
- MEASUREMENT_DESCRIPTION: Antagonist activity at T7 epitope tagged human cloned sst2 expressed in HEK293 cells assessed as [Tyr3]octreotide-induced intracellular calcium release upto 10 uM
- Type: functional, cell-based
Active and inactive are the calls of the source. No cut-off for these calls is given here.

STRUCTURE_STRING | Activity
C[C@@H](O)[C@@H]1NC(=O)[C@H](CCCCN)NC(=O)[C@@H](Cc2c[nH]c3ccccc23)NC(=O)[C@H](Cc2ccc(O)cc2)NC(=O)[C@H](NC(=O)[C@H](N)Cc2ccc(Cl)cc2)CSSC[C@@H](C(=O)N[C@@H](Cc2ccc3ccccc3c2)C(N)=O)NC1=O | Active
C[C@@H](O)[C@@H]1NC(=O)[C@H](CCCCN)NC(=O)[C@@H](Cc2ccc(NC(N)=O)cc2)NC(=O)[C@H](Cc2ccc(NC(=O)[C@@H]3CC(=O)NC(=O)N3)cc2)NC(=O)[C@H](NC(=O)[C@@H](Cc2ccc(Cl)cc2)NC(=O)CN2CCN(CC(=O)O)CCN(CC(=O)O)CCN(CC(=O)O)CC2)CSSC[C@@H](C(=O)N[C@@H](Cc2ccc3ccccc3c2)C(N)=O)NC1=O | Active
C[C@@H](O)[C@@H]1NC(=O)[C@H](CCCCN)NC(=O)[C@@H](Cc2c[nH]c3ccc(F)cc23)NC(=O)[C@H](Cc2ccc(NC(N)=O)cc2)NC(=O)[C@H](NC(=O)[C@H](N)Cc2ccc(Cl)cc2)CSSC[C@@H](C(=O)N[C@@H](Cc2ccc3ccccc3c2)C(N)=O)NC1=O | Active

###

pIC50: −log10 of the molar value.
Let's go through some pIC50 measurements on Somatostatin receptor type 1 (Homo sapiens, UniProt P30872) together.
Sequence (P30872 whole entry): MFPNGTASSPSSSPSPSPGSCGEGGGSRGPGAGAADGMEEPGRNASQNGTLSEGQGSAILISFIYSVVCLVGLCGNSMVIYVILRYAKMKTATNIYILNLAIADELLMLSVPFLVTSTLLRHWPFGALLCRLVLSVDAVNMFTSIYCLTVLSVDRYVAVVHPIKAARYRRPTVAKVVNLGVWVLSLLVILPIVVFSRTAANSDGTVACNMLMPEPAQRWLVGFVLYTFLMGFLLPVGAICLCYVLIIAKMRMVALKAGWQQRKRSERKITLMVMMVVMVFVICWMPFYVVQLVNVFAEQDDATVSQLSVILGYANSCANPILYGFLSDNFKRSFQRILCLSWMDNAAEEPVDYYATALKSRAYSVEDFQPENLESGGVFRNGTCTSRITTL

Task: Looking for the measured pIC50 of `C[C@@H](O)[C@@H]1NC(=O)[C@H](CCCCN)NC(=O)[C@@H](Cc2c[nH]c3ccccc23)NC(=O)[C@H](Cc2ccc(O)c(I)c2)NC(=O)[C@H](NC(=O)[C@H](Cc2ccc([N+](=O)[O-])cc2)NC(=O)CN2CCN(CC(=O)O)CCN(CC(=O)O)CCN(CC(=O)O)CC2)CSSC[C@@H](C(=O)N[C@H](Cc2ccc(O)cc2)C(N)=O)NC1=O` , can you help?
Output: < 6.00

Task: Looking for the measured pIC50 of `C[C@@H](O)[C@@H]1NC(=O)[C@H](CCCCN)NC(=O)[C@@H](Cc2ccc(NC(N)=O)cc2)NC(=O)[C@H](Cc2ccc(NC(=O)[C@@H]3CC(=O)NC(=O)N3)cc2)NC(=O)[C@H](NC(=O)[C@@H](N)Cc2ccc([N+](=O)[O-])cc2)CSSC[C@@H](C(=O)N[C@@H](Cc2ccc3ccccc3c2)C(N)=O)NC1=O` , can you help?
Output: < 6.00

Task: Looking for the measured pIC50 of `C[C@@H](O)[C@@H]1NC(=O)[C@H](CCCCN)NC(=O)[C@@H](Cc2c[nH]c3ccccc23)NC(=O)[C@H](Cc2ccc(NC(N)=O)cc2)NC(=O)[C@H](NC(=O)[C@H](Cc2ccc(Cl)cc2)NC(=O)CCOCCOCCOCCNC(=O)CN2CCN(CC(=O)O)CCN(CC(=O)O)CCN(CC(=O)O)CC2)CSSC[C@@H](C(=O)N[C@@H](Cc2ccc3ccccc3c2)C(N)=O)NC1=O` , can you help?
Output: < 6.00

###

Could you please report measured IC50 for the items listed next?
Respond with the bare value in nM.

Task: What value of IC50 on UniProtKB P32745 does `C[C@@H](O)[C@@H]1NC(=O)[C@H](CCCCN)NC(=O)[C@@H](Cc2c[nH]c3ccccc23)NC(=O)[C@H](Cc2ccc(NC(N)=O)cc2)NC(=O)[C@H](NC(=O)[C@@H](N)Cc2ccc(Cl)cc2)CSSC[C@@H](C(=O)N[C@@H](Cc2ccc(NC(=O)[C@@H]3CC(=O)NC(=O)N3)cc2)C(N)=O)NC1=O` have?
Output: 162

Task: What value of IC50 on UniProtKB P32745 does `C[C@@H](O)[C@@H]1NC(=O)[C@H](CCCCN)NC(=O)[C@@H](Cc2ccc(NC(N)=O)cc2)NC(=O)[C@H](Cc2ccc(NC(=O)[C@@H]3CC(=O)NC(=O)N3)cc2)NC(=O)[C@H](NC(=O)[C@@H](N)Cc2ccc([N+](=O)[O-])cc2)CSSC[C@@H](C(=O)N[C@@H](Cc2ccc3ccccc3c2)C(N)=O)NC1=O` have?
Output: 451

Task: What value of IC50 on UniProtKB P32745 does `C[C@@H](O)[C@@H]1NC(=O)[C@H](CCCCN)NC(=O)[C@@H](Cc2ccc(NC(N)=O)cc2)NC(=O)[C@H](Cc2ccc(NC(=O)[C@@H]3CC(=O)NC(=O)N3)cc2)NC(=O)[C@H](NC(=O)[C@@H](N)Cc2ccc(Cl)cc2)CSSC[C@@H](C(=O)N[C@@H](Cc2ccc3ccccc3c2)C(N)=O)NC1=O` have?
Output: 83

###

- TARGET_OR_SYSTEM: Somatostatin receptor type 2 (Homo sapiens)
REPORTED_ENDPOINT: IC50 (nM)
Respond with the bare value in nM.

Task: Looking for the measured IC50 of `C[C@@H](O)[C@@H]1NC(=O)[C@H](CCCCN)NC(=O)[C@@H](Cc2ccc(NC(N)=O)cc2)NC(=O)[C@H](Cc2ccc(NC(=O)[C@@H]3CC(=O)NC(=O)N3)cc2)NC(=O)[C@H](NC(=O)[C@@H](N)Cc2ccc(Cl)cc2)CSSC[C@@H](C(=O)N[C@@H](Cc2ccc3ccccc3c2)C(N)=O)NC1=O` , can you help?
Output: 2.4

Task: Looking for the measured IC50 of `C[C@@H](O)[C@@H]1NC(=O)[C@H](CCCCN)NC(=O)[C@@H](Cc2ccc(NC(N)=O)cc2)NC(=O)[C@H](Cc2ccc(NC(=O)[C@@H]3CC(=O)NC(=O)N3)cc2)NC(=O)[C@H](NC(=O)[C@@H](N)Cc2ccc([N+](=O)[O-])cc2)CSSC[C@@H](C(=O)N[C@@H](Cc2ccc3ccccc3c2)C(N)=O)NC1=O` , can you help?
Output: 2.7

Task: Looking for the measured IC50 of `C[C@@H](O)[C@@H]1NC(=O)[C@H](CCCCN)NC(=O)[C@@H](Cc2c[nH]c3ccccc23)NC(=O)[C@H](Cc2ccc(NC(N)=O)cc2)NC(=O)[C@H](NC(=O)[C@H](Cc2ccc(Cl)cc2)NC(=O)CCOCCOCCOCCNC(=O)CN2CCN(CC(=O)O)CCN(CC(=O)O)CCN(CC(=O)O)CC2)CSSC[C@@H](C(=O)N[C@@H](Cc2ccc3ccccc3c2)C(N)=O)NC1=O` , can you help?
Output: 40

Task: Looking for the measured IC50 of `C[C@@H](O)[C@@H]1NC(=O)[C@H](CCCCN)NC(=O)[C@@H](Cc2ccc(NC(N)=O)cc2)NC(=O)[C@H](Cc2ccc(NC(=O)[C@@H]3CC(=O)NC(=O)N3)cc2)NC(=O)[C@H](NC(=O)[C@H](Cc2ccc(Cl)cc2)NC(=O)CN2CCN(CC(=O)O)CCN(CC(=O)O)CCN(CC(=O)O)CC2)CSSC[C@@H](C(=O)N[C@@H](Cc2ccc3ccccc3c2)C(N)=O)NC1=O` , can you help?
Output: 1.7

Cited source for all entries: ChEMBL document CHEMBL1157505
